These data points were gathered from patent US10851102B2.

tested on: IL-2 stimulated pSTAT5 in Tall-1 T cells (JAK3); assay: Cellular JAK3 potency assay: inhibition of IL-2 stimulated pSTAT5 in Tall-1 T cells; format: cell-based; conditions: IL-2 300 ng/ml, pSTAT5 AlphaLisa, Tall-1 human T cell line; read-out: Tall-1 (pIC50) (converted)
Give IC50 for every item shown.

Please review the following examples before continuing.
{"columns": ["molecule", "IC50"],
 "data": [
  ["C=CC(=O)N1CC2(CCC2Oc2cc(-c3cc(F)c(O)cc3CC)cn3cncc23)C1 (stereo not shown) [Example 46]", "31.6 to 200 nM"],
  ["C=CC(=O)N1CCC[C@H](Oc2cc(-c3cc(F)c(O)cc3CC)cn3cncc23)C1 [Example 16]", "31.6 to 200 nM"],
  ["CN(C)C/C=C/C(=O)N1CC(COc2cc(-c3ccc(O)cc3)cn3cncc23)C1 [Example 19]", "200 to 1000 nM"]
]}

Okay, now this molecule:
Inquiry: So what does the record say about IC50 for C=CC(=O)N1CC(COc2cc(-c3ccc(O)cc3C(F)(F)F)cn3cncc23)C1 [Example 42] ?
Reply text: 200 to 1000 nM

====

test: Colon and plasma mouse pharmacokinetics; assay type: in vivo; settings: mouse; ratio of colon AUC to plasma AUC; male Balb/c mice, 10 mg/kg PO
So I've got a bunch of compounds here, and I need their Kp values.

{"columns": ["compound", "Kp"],
 "data": [
  ["C=CC(=O)N1CCC(Oc2cc(-c3ccc(O)cc3)cn3cncc23)CC1", "> 8"]
]}

Hi there! I need Kp for each item below, if you can.
1. C=CC(=O)N1CC[C@@H](Oc2cc(-c3ccc(O)cc3)cn3cncc23)C[C@H]1C
2. CCc1cc(O)c(F)cc1-c1cc(OCC2CN(C(=O)/C=C/CN(C)C)C2)c2cncn2c1
3. C=CC(=O)N1CCC[C@H](Oc2cc(-c3cc(F)c(O)cc3CC)cn3cncc23)C1
4. C=CC(=O)N1CC(COc2cc(-c3ccc(O)c(Cl)c3)cn3cncc23)C1

Reply text:
> 30
> 200
> 200
> 200

Inquiry: For the compound shown here, `C=CC(=O)N1CC(COc2cc(-c3cc(F)c(O)cc3CC)cn3cncc23)C1` , give the reported Kp.
Reply text: > 200

====

test system: IL-2 stimulated pSTAT5 in Tall-1 T cells (JAK3); assay: Cellular JAK3 potency assay: inhibition of IL-2 stimulated pSTAT5 in Tall-1 T cells; format: cell-based; settings: IL-2 300 ng/ml, pSTAT5 AlphaLisa, Tall-1 human T cell line; read-out: Tall-1 (pIC50) (converted)
quantity: IC50

Some entries whose results are on file:
{"columns": ["compound", "assay_target", "observed_value"],
 "data": [
  ["C=CC(=O)N1CC(COc2cc(-c3ccc(O)c(F)c3)cn3cncc23)C1", "IL-2 stimulated pSTAT5 in Tall-1 T cells (JAK3)", "31.6 to 200 nM"],
  ["C=CC(=O)N1CC(C(C)(C)Oc2cc(-c3ccc(O)cc3)cn3cncc23)C1", "IL-2 stimulated pSTAT5 in Tall-1 T cells (JAK3)", "31.6 to 200 nM"],
  ["C=CC(=O)N1CC(COc2cc(-c3cc(F)c(O)cc3CC)cn3cncc23)C1", "IL-2 stimulated pSTAT5 in Tall-1 T cells (JAK3)", "≤ 31.6 nM"],
  ["C=CC(=O)N1CCC(Oc2cc(-c3ccc(O)cc3)cn3cncc23)CC1", "IL-2 stimulated pSTAT5 in Tall-1 T cells (JAK3)", "31.6 to 200 nM"]
]}

Moving on to another compound below.
Inquiry: Which IC50 value is on record for `C=CC(=O)N1CC(COc2cc(-c3ccc(O)cc3)cn3cnnc23)C1` ?
Reply text: 200 to 1000 nM

====

system: IL-2 stimulated pSTAT5 in Tall-1 T cells (JAK3); experiment: Cellular JAK3 potency assay: inhibition of IL-2 stimulated pSTAT5 in Tall-1 T cells; format: cell-based; settings: IL-2 300 ng/ml, pSTAT5 AlphaLisa, Tall-1 human T cell line; read-out: Tall-1 (pIC50) (converted)
quantity: IC50

Consider the reported IC50 for these molecules:
{"columns": ["compound", "IC50"],
 "data": [
  ["CCc1cc(O)c(F)cc1-c1cc(OCC2CN(C(=O)/C=C/CN(C)C)C2)c2cncn2c1", "0.0316 to 0.2 µM"],
  ["C=CC(=O)N1CC(COc2cc(-c3cc(Cl)c(O)c(OC)c3)cn3cncc23)C1", "0.0316 to 0.2 µM"],
  ["C=CC(=O)N1CCC(COc2cc(-c3ccc(O)cc3)cn3cncc23)CC1", "0.2 to 1 µM"]
]}

Look up IC50 for the entries below, preserving their order.
1. C=CC(=O)N1CC(COc2cc(-c3ccc(O)cc3)cn3cncc23)C1
2. C=CC(=O)N1CC(COc2cc(-c3ccc(O)cc3CC)cn3cncc23)C1
3. C=CC(=O)N1CC(COc2cc(-c3ccc(O)c(Cl)c3)cn3cncc23)C1
4. C=CC(=O)N1CC(COc2cc(-c3cc(C)c(O)c(C)c3)cn3cncc23)C1
5. C=CC(=O)N1CC(COc2cc(-c3cc(C)c(O)cc3C)cn3cncc23)C1

Reply text:
["0.0316 to 0.2 µM", "0.0316 to 0.2 µM", "0.0316 to 0.2 µM", "0.2 to 1 µM", "0.0316 to 0.2 µM"]
